# System: Cavia porcellus
# experiment notes: Antiasthamatic activity in histamine-induced guinea pig asthma model assessed as prolongation of asthmogenic latent period at 0.01 mg/kg, ig pretreated for 60 mins prior to histamine-challenge (reference value: 127.10 +/- 40.46 seconds)
# Assay type: functional
# assay conditions: route intragastric
measured attribute: Time

Consider the following illustrative entries.
compound	target entity	test result
CCCN1CCC(=C2c3ccc(Cl)cc3CCc3cccnc32)CC1	Cavia porcellus	255.1 s
NCCCN1CCC(=C2c3ccc(Cl)cc3CCc3cccnc32)CC1	Cavia porcellus	182.8 s
OCCCN1CCC(=C2c3ccc(Cl)cc3CCc3cccnc32)CC1	Cavia porcellus	221.9 s
FCCCN1CCC(=C2c3ccc(Cl)cc3CCc3cccnc32)CC1	Cavia porcellus	269.4 s
Clc1ccc2c(c1)CCc1cccnc1C2=C1CCN(C2CC=CCC2)CC1 (stereo unspecified)	Cavia porcellus	262.7 s
Clc1ccc2c(c1)CCc1cccnc1C2=C1CCN(C2CCCCC2)CC1	Cavia porcellus	250.3 s
OC1CCC(N2CCC(=C3c4ccc(Cl)cc4CCc4cccnc43)CC2)CC1 (stereo unspecified)	Cavia porcellus	222 s
CN(C)CCCN1CCC(=C2c3ccc(Cl)cc3CCc3cccnc32)CC1	Cavia porcellus	212.8 s

Here are 3 compounds. What values of Time were reported for them?
1. O=C1c2ccccc2C(=O)N1CCCN1CCC(=C2c3ccc(Cl)cc3CCc3cccnc32)CC1
2. ClCCCN1CCC(=C2c3ccc(Cl)cc3CCc3cccnc32)CC1
3. Clc1ccc2c(c1)CCc1cccnc1C2=C1CCN(C2CCC(Cl)CC2)CC1 (stereo unspecified)

1: 247.9 s; 2: 256.9 s; 3: 325.2 s

###

Answer each item with its documented Time.
# Test system: Mus musculus
# experiment notes: Toxicity in mouse assessed as effect on pentobarbital sodium-induced hypnotic effect measured as loss of righting reflex latency at 50 mg/kg pretreated for 30 mins prior to pentobarbital sodium-challenge
# Assay type: organism-based
# Design: dose 50 mg/kg
# assay conditions: in vivo
Give bare numbers, in min.

compound	Time (min)
FCCCN1CCC(=C2c3ccc(Cl)cc3CCc3cccnc32)CC1	1.47
OCCCN1CCC(=C2c3ccc(Cl)cc3CCc3cccnc32)CC1	1.54
Clc1ccc2c(c1)CCc1cccnc1C2=C1CCN(C2CCC(Cl)CC2)CC1 (stereo not given)	1.61
ClCCCN1CCC(=C2c3ccc(Cl)cc3CCc3cccnc32)CC1	1.48

Now examine the next entry.
compound `CCCN1CCC(=C2c3ccc(Cl)cc3CCc3cccnc32)CC1` , Time observed: 1.47

###

# target entity: UniProtKB P31389
# Sequence (P31389 whole entry): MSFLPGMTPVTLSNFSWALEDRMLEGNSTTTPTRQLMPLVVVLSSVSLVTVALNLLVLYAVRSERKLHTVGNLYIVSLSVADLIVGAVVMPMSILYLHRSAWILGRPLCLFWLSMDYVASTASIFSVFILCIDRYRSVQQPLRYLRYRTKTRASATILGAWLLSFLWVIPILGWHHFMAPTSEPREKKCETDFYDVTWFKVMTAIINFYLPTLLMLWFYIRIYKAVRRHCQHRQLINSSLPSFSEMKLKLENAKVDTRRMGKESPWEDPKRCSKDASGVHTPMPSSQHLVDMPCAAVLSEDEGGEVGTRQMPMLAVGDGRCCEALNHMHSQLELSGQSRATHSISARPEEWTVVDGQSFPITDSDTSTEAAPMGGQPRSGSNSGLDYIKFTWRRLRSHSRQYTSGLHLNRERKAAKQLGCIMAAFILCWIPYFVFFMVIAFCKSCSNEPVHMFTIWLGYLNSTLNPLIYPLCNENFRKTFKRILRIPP
# experiment notes: Antagonist activity at histamine H1 receptor in guinea pig ileum assessed as inhibition of histamine-induced smooth muscle contraction at 0.2 mg/mL after 3 mins (reference value: 3.37 +/- 1.05 g)
# Format: tissue-based
measured attribute: Activity (g)
Numbers only, in g.

compound	target entity	unit string	Activity
FCCCN1CCC(=C2c3ccc(Cl)cc3CCc3cccnc32)CC1	UniProtKB P31389	g	1.74
Clc1ccc2c(c1)CCc1cccnc1C2=C1CCN(C2CCCCC2)CC1	UniProtKB P31389	g	2.57
CN(C)CCCN1CCC(=C2c3ccc(Cl)cc3CCc3cccnc32)CC1	UniProtKB P31389	g	2.66
NCCCN1CCC(=C2c3ccc(Cl)cc3CCc3cccnc32)CC1	UniProtKB P31389	g	2.36
CCCN1CCC(=C2c3ccc(Cl)cc3CCc3cccnc32)CC1	UniProtKB P31389	g	1.8

We next turn to a different compound, shown below.
Per the record, OC1CCC(N2CCC(=C3c4ccc(Cl)cc4CCc4cccnc43)CC2)CC1 (stereo unspecified) has Activity of 2.93
